- Test System: UniProtKB Q6QLK5
- Sequence (Q6QLK5 whole entry, the tested form may be a part): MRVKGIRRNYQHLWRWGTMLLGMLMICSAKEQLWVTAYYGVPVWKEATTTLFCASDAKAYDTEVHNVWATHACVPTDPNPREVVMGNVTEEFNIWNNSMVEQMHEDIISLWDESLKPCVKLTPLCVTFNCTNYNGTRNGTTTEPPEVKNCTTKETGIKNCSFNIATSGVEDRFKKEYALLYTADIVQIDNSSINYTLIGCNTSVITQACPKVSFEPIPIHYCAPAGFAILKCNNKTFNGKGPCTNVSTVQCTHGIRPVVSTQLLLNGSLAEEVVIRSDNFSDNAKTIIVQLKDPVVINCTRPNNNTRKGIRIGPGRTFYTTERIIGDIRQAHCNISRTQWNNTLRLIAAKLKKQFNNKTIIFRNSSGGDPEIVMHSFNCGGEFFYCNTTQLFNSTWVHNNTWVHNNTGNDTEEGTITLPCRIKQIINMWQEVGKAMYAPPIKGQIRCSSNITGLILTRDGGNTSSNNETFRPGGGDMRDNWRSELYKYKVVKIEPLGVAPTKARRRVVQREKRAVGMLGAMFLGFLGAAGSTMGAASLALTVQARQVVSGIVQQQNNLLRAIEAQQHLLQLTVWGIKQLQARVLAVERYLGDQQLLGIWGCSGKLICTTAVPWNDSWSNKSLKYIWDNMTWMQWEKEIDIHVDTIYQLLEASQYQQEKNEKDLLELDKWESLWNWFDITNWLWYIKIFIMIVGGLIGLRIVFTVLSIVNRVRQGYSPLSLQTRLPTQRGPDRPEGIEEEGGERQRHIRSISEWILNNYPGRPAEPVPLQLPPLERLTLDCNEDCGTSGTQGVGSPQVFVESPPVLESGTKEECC
- Assay Method Text: cell-free HIV fusion peptide-binding blockers – biochemical, uHTS, fluorescence dequenching, […] (AID 1986)
The source made the active and inactive calls. No stated cut-off is given here; in the data, actives have a measured IC50 and inactives only a lower limit.
Some molecules, each annotated with its measured IC50.

O=C(O)c1cc(-c2ccc(/C=N/Nc3ccc(Cl)cc3)o2)ccc1Cl ... 24.1 µM (active)
O=C(CCN1C(=O)/C(=C/c2cccs2)SC1=S)Nc1ccc(C(=O)O)c(O)c1 ... 11.6 µM (active)
N#Cc1c(SCC(=O)Nc2nc3ccc(Br)cc3s2)sc2c(O)cc(=O)[nH]c12 ... 11 µM (active)
Cc1oc2c(cc(NS(=O)(=O)c3ccc(C(C)C)cc3)c3ccccc32)c1C(=O)O ... 14.8 µM (active)

Let us move to another entry and its IC50.
The observed IC50 for COc1cccc(OCCOc2ccc(/C=C3\C(=N)N4N=C(S(C)(=O)=O)SC4=NC3=O)cc2OC)c1 when tested with UniProtKB Q6QLK5 stands at 43.8 µM (active)
